From: patent US20240132578A1

- targetUnderTest: HIV-1 JR-FL Env E168K, on pseudovirus (HIV-1 isolate JR-FL (clade B))
- procedureSummary: cell-based or functional assay
Each entry below carries its recorded IC50 (ug/ml), pseudovirus neutralization, TZM-bl assay.
measureName: IC50 (ug/ml), pseudovirus neutralization, TZM-bl assay

{"binder": "1489_I13 (PG16) (TCN-120) (antibody, V domains shown) VH: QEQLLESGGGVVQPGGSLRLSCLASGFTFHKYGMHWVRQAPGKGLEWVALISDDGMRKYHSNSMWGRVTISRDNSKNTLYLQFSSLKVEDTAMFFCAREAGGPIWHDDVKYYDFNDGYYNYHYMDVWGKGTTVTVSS VL: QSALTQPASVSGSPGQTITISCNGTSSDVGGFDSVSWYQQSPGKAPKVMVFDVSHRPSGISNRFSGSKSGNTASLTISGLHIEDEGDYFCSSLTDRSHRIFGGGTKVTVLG", "testValue": "0.005 µg/mL"}
{"binder": "1469_M23 (PG16) (TCN-118) (antibody, V domains shown) VH: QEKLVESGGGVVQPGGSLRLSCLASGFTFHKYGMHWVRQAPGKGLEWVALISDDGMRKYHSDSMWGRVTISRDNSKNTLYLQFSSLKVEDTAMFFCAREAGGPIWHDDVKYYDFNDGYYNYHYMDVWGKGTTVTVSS VL: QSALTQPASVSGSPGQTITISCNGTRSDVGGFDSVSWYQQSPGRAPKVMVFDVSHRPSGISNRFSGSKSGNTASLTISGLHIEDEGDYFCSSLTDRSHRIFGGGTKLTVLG", "testValue": "0.005 µg/mL"}
{"binder": "1503_H05 (PG16) (TCN-119) (antibody, V domains shown) VH: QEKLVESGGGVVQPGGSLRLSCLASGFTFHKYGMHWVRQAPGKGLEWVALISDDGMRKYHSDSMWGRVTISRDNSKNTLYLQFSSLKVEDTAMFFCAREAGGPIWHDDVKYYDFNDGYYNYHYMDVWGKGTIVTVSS VL: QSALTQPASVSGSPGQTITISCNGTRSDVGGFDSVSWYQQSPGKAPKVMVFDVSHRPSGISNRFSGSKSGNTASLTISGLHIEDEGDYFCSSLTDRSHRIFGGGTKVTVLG", "testValue": "0.002 µg/mL"}
{"binder": "1456_A12 (PG16) (TCN-117) (antibody, V domains shown) VH: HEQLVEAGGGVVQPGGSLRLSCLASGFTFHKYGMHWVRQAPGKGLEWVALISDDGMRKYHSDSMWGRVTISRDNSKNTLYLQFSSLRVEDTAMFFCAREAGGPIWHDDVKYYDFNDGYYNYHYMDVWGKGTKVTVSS VL: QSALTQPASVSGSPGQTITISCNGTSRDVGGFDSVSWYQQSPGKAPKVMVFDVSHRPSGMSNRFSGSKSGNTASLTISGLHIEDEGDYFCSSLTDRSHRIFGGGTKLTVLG", "testValue": "0.003 µg/mL"}
